What kon was measured for each of the following?
assay target: T1, hPD-L1-His (human, UniProt Q9NZQ7 19-238)
T1 construct: Bought protein; also called hPD-L1-His (manufactured by Edison); not shown: His tag
T1 sequence (Q9NZQ7 19-238 limits assumed): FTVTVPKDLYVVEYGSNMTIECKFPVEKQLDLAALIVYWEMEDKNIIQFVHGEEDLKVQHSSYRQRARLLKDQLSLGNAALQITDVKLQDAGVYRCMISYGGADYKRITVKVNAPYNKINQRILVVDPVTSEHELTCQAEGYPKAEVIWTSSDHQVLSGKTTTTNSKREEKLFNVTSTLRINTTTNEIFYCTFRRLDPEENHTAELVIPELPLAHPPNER
protocol: SPR (Biacore T200), antibody on Protein A chip, hPD-L1-His injected, 1:1 fit
The reply should contain only the number, in M⁻¹ s⁻¹.

Input line: Please report the recorded kon for 3F2-H2K1-IgG1 (antibody, V domains shown) VH: DVQLQESGPGLVKPSETLSLTCTVSGYSITSGYNWHWIRQFPGNGLEWMGYIHHSSITNYNPSLKSRITISRDTSKNQFSLKLSSVTAADTATFYCAREGYDYDWFAYWGQGTLVTVSS VL: DIVLTQSPDFQSVTPKEKVTITCRASQSISNNLHWYQQKPDESPKLLIKYASQSISGIPSRFSGSGSGTDFTLTINSVEAEDFAMYFCQQSKSWPFTFGQGTRLEIK .
Output line: 1.13e+06

Input line: If you can, please state the reported kon value of 3F2-H4K3-IgG1 (antibody, V domains shown) VH: DVQLQESGPGLVKPSETLSLTCTVSGYSITSGYNWHWIRQFPGNKLEWMGYIHHSSITNYNPSLKSRITISRDTSKNQFFLQLSSVTAEDTATFYCAREGYDYDWFAYWGQGTLVTVSS VL: DIVLTQSPDTQSVTPKESVTLSCRASQSISNNLHWYQQKSHESPKLLIKYASQSISGIPSRFSGSGSGTDFTLTINSVEAEDFAMYFCQQSKSWPFTFGQGTRLEIK .
Output line: 1.39e+06

Input line: // returns reported kon for input 6A11-H3K4-IgG1 (antibody, V domains shown) VH: EVQLVESGGGLVQPGGSRRLSCAASGFTFSSFGMHWVRQAPGKGLEWVAYISSGSNTIYYADTVKGRFTISRDNAKNSLYLQMNSLRAEDTAVYYCTRNGYDGWYAMDYWGQGTTVTVSS VL: EIVLTQSPATLSASPGERATLSCSASSSVSYIHWFQQKPGQSPRRWIYDTSKLASGIPARFSGSGSGTSYTLTISSMEPEDAATYYCQQWSTNPFTFGQGTKLEIKR
Output line: 258000

Input line: Look up kon: 3F2-H3K1-IgG1 (antibody, V domains shown) VH: DVQLQESGPGLVKPSETLSLTCTVSGYSITSGYNWHWIRQFPGNGLEWMGYIHHSSITNYNPSLKSRITISRDTSKNQFSLKLSSVTAEDTATFYCAREGYDYDWFAYWGQGTLVTVSS VL: DIVLTQSPDFQSVTPKEKVTITCRASQSISNNLHWYQQKPDESPKLLIKYASQSISGIPSRFSGSGSGTDFTLTINSVEAEDFAMYFCQQSKSWPFTFGQGTRLEIK
Output line: 1.13e+06

Input line: For the binder 3F2-H2K3-IgG1 (antibody, V domains shown) VH: DVQLQESGPGLVKPSETLSLTCTVSGYSITSGYNWHWIRQFPGNGLEWMGYIHHSSITNYNPSLKSRITISRDTSKNQFSLKLSSVTAADTATFYCAREGYDYDWFAYWGQGTLVTVSS VL: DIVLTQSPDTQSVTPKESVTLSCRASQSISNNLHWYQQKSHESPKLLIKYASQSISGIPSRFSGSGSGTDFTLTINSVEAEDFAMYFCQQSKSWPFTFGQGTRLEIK , what kon is on record?
Output line: 1.16e+06

The origin of these recorded values is patent US20220073621A1.
